system.name: σ2 receptor (Rattus norvegicus, UniProt Q5U3Y7)
Sequence (Q5U3Y7 whole entry): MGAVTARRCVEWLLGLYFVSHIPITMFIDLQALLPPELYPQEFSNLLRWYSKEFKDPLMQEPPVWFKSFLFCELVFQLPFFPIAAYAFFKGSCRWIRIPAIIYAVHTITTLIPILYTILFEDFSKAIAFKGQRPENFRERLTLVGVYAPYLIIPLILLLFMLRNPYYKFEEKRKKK
pKi: −log10 of the molar value.
readout.name: pKi

INSERT INTO measurements (molecule, system_name, numeric_result) VALUES
  ('CCCCCCCC/C=C\CCCCCCCC(=O)NC(CO)(CO)CO [Compound 13]', 'σ2 receptor (Rattus norvegicus, UniProt Q5U3Y7)', 5.44);
